test system: ROB ((S,S)-butanediol dehydrogenase); type: biochemical, Ochrobactrum sp. KNKc71-3; details: oxidation; each compound 10 mM, NAD+ 2 mM, pH 8.0, 30° C., 1 minute; activity against (2S,3S)-2,3-butanediol taken as 100
measured_property: Relative activity (%)
Quick note: give the figure in %, leave out the unit.

q: I would be grateful if you could share the reported Relative activity (%) for C[C@H](O)CO [(S)-1,2-propanediol] .
a: 16.7

q: I would be grateful if you could share the reported Relative activity (%) for CCC[C@@H](C)O [(R)-2-pentanol] .
a: 2.9

q: I would be grateful if you could share the reported Relative activity (%) for C[C@@H](O)[C@@H](C)O .
a: 0.6

q: I would be grateful if you could share the reported Relative activity (%) for CC(O)C(C)O (stereo not drawn) .
a: 38.9

q: I would be grateful if you could share the reported Relative activity (%) for OC[C@H](O)CCl [(S)-3-chloro-1,2-propanediol] .
a: 0.1

q: I would be grateful if you could share the reported Relative activity (%) for OC[C@@H](O)CCl [(R)-3-chloro-1,2-propanedio] .
a: 3.5

q: I would be grateful if you could share the reported Relative activity (%) for C[C@H](O)[C@H](C)O .
a: 100

q: I would be grateful if you could share the reported Relative activity (%) for CCC[C@H](C)O [(S)-2-pentanol] .
a: 58.9

q: I would be grateful if you could share the reported Relative activity (%) for C[C@@H](O)CO [(R)-1,2-propanediol] .
a: 8.0

Just for reference, patent US20110143406A1 is where these values come from.
